Values from PubChem BioAssay AID1259407

System: CCRIS mutagenicity, Ames/micronucleus/aberration tests
Experiment: CCRIS mutagenicity studies
Conditions: Test System: AMES SALMONELLA TYPHIMURIUM; Strain/Indicator: TA100; Metabolic Activation: NONE; Method: PREINCUBATION
Active and inactive are the calls of the source. The rule behind the calls is not given here.
Result category, one only: 1 (active), -1 (inactive)

Check out these entries, answers already filled in.
q: What was the test verdict on OCCN(CCO)CCO ?
a: -1

q: What was the test verdict on Cc1ccccc1OP(=O)(Oc1ccccc1)Oc1ccccc1 ?
a: -1

q: What was the test verdict on O=c1oc2ccc([N+](=O)[O-])c3ccc4cccc1c4c23 ?
a: 1

Continuing:
q: What was the test verdict on O=C1CN(/N=C/c2ccc([N+](=O)[O-])o2)C(=O)N1 ?
a: 1

q: What was the test verdict on NCCNCCNCCN ?
a: 1

---

System: CCRIS mutagenicity, Ames/micronucleus/aberration tests
Experiment: CCRIS mutagenicity studies
Conditions: Test System: AMES SALMONELLA TYPHIMURIUM; Strain/Indicator: TA1535; Metabolic Activation: RAT, LIVER, S-9, AROCLOR 1254; Method: STANDARD PLATE
Activity calls are given as the source filed them. No rule for the calls is given here.
Result category, one only: active, inactive

Check out these entries, answers already filled in.
q: What was the test verdict on C1=C/CCC2OC2CC/C=C/CC/1 (configuration not stated) ?
a: inactive

q: What was the test verdict on O=S(=O)(O)c1c(N=Nc2c(O)ccc3ccccc23)ccc2ccccc12 ?
a: inactive

q: What was the test verdict on CCC(=O)OCC(=O)[C@@]1(OC(=O)CC)[C@H](C)C[C@H]2[C@H]3[C@H]([C@@H](O)C[C@@]21C)[C@@]1(C)C=CC(=O)C=C1C[C@H]3Cl ?
a: inactive

q: What was the test verdict on O=[N+]([O-])C1=Cc2c3ccc4ccccc4c3cc3cccc1c23 ?
a: inactive

q: What was the test verdict on CN1CCN(C2=Nc3cc(Cl)ccc3Nc3ccccc32)CC1 ?
a: inactive

q: What was the test verdict on Cc1ccc(NCCO)cc1O ?
a: inactive

q: What was the test verdict on Oc1c(Br)cc(Br)cc1Br ?
a: inactive

q: What was the test verdict on CCN(CC)c1ccc(N=Nc2c(Cl)cc([N+](=O)[O-])cc2Cl)cc1 ?
a: inactive

q: What was the test verdict on C=CC(=O)OCC(C)(C)C ?
a: inactive

q: What was the test verdict on COc1cc(C[C@@H]2NCCc3cc(O)c(O)cc32)cc(OC)c1OC ?
a: inactive

Continuing:
q: What was the test verdict on C=C(C)C(C)=O ?
a: inactive

q: What was the test verdict on CN(C)C1Cc2cccc3cccc(c23)C1 ?
a: inactive

q: What was the test verdict on O=[N+]([O-])c1cc(NS(=O)(=O)c2cccc3cccnc23)ccc1Cl ?
a: inactive

q: What was the test verdict on CCCCC/C=C/C(=O)CCc1ccc(O)c(OC)c1 ?
a: active

q: What was the test verdict on NC(=O)[C@@H]1CCCN1C(=O)[C@H](Cc1cnc[nH]1)NC(=O)[C@@H]1CCC(=O)N1 ?
a: inactive

q: What was the test verdict on CC(C)(CO)[C@@H](O)C(=O)NCCCO ?
a: inactive

q: What was the test verdict on Cc1cc(O)c2c(c1)C(=O)c1cc(O)cc(O)c1C2=O ?
a: inactive

q: What was the test verdict on C=C1CC/C=C(/C)CC[C@@H]2[C@@H]1CC2(C)C ?
a: inactive

q: What was the test verdict on O=[N+]([O-])c1cc(C(F)(F)F)cc([N+](=O)[O-])c1O ?
a: inactive

q: What was the test verdict on ClC(Cl)Br ?
a: inactive

q: What was the test verdict on Cc1cc(C)nc(SC(=O)OC(C)(C)C)n1 ?
a: inactive

q: What was the test verdict on Nc1ccc2ccccc2c1N=Nc1ccccc1 ?
a: inactive

q: What was the test verdict on C=C(C)OC(C)=O ?
a: inactive

q: What was the test verdict on C=CC(=O)OCCCCCCOC(=O)C=C ?
a: inactive

q: What was the test verdict on CC(C)Cc1ccc(C(C)C(=O)O)cc1 (configuration not stated) ?
a: inactive

q: What was the test verdict on C=CC(=O)OCC (tested in a mixture with another compound) ?
a: active

q: What was the test verdict on CCCCC(CC)COC(=O)c1ccc(N(C)N=O)cc1 (configuration not stated) ?
a: inactive
